Documented growth inhibition across a set of molecules
assay-name: NCI Yeast Anticancer Drug Screen. Data for the mlh1 rad18 strain (AID 175)
condition-description: S. cerevisiae mlh1 rad18 strain growth inhibition; at 50.0 µM; stronger effect = higher value
The panel holds about 79,000 compounds, 15% with a hit somewhere; the sample as a whole holds those more often.
Reply with just the number (in %).

>  <molecule>
N#Cc1nc(-c2cccc(-c3nc(C#N)c(N)o3)n2)oc1N

>  <reading>
-58.6

$$$$
>  <molecule>
CCOC(=O)c1c(C)nc(C)c(C(=O)OCC)c1-c1cccc([N+](=O)[O-])c1

>  <reading>
25.9

$$$$

Lookup result for O=C1NC(C2CC3C=CC2C3)Nc2ccccc21 (stereo not drawn) ; measured growth inhibition: 2.7

Lookup result for COc1cc(/C=N/NC(=O)c2ccncc2)cc(OC)c1OC ; measured growth inhibition: -16.5

Lookup result for Cc1ccc(-c2noc(CC(=O)c3ccc([N+](=O)[O-])cc3)n2)cc1 ; measured growth inhibition: 38.8

Lookup result for CCOC(=O)C(=Cc1c[nH]c2ccc(Br)cc12)C(=O)OCC ; measured growth inhibition: -5.15

Lookup result for C=CCOc1cccc(OCC=C)c1C ; measured growth inhibition: -3.9

Lookup result for C=CCCCCCCCCC(=O)Cl ; measured growth inhibition: 11.1

Lookup result for CCOC(=O)NC(C)(C)CN(C(=O)OCC)c1ccccc1 ; measured growth inhibition: -10.7
